- ASSAY SYSTEM: T1, Grb2 C-terminal SH3 domain (SH3C), residues 155-217 (mouse, UniProt Q60631 155-217)
- T1 construct: Uniformly 15N or 15N,13C labelled in the NMR titrations; monomer by glutaraldehyde cross-linking and SEC; also called Grb2 SH3C; Grb2 CSH3 domain; source: E. coli, purified (Ni2+-NTA chromatography); not shown: His tag, N-terminal, cleaved
- T1 sequence (Q60631 155-217): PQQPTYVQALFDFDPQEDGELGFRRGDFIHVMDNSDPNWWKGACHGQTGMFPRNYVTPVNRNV
- ASSAY COMMENT: ITC; free Grb2 SH3C in the cell (20 uM for the peptide, 40 uM for Vav) titrated with 280 uM SLP65 peptide or 600 uM Vav SH3N; 20 mM sodium phosphate, 100 mM NaCl, pH 6.0, 25 °C; one-site binding model
- CONDITION LABEL: both partners purified
pKd: −log10 of the molar value.

| BINDER | pKd |
| --- | --- |
| Ac-EKAPMVNRSTKPNSSS-NH2 (SLP65, mouse, residues 201-216; also called synthetic peptide; source: synthetic peptide) [SLP65 peptide Ace-EKAPMVNRSTKPNSSS-NH2 (residues 201-216 of mouse SLP65)] | 5.45 |

The origin of these recorded values is paper PMC5430726.
